meta.source: patent US11072601B2

- systemUnderTest: cAMP pathway of MOR receptor (Homo sapiens)
- Sequence (P35372 whole entry): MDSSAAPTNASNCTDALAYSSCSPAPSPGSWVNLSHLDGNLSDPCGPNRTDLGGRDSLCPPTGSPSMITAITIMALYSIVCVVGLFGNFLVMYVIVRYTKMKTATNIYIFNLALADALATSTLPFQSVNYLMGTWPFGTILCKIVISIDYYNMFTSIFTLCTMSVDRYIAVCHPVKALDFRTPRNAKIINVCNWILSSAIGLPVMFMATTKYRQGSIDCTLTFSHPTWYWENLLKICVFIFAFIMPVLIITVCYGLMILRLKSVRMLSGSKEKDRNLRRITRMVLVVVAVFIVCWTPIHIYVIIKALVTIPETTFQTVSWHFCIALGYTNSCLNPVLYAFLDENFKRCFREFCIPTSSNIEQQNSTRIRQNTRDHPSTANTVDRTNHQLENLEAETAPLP
- assayNotes: cell-based
- experimentalConditions: cAMP Hunter HEK293 cells, forskolin-induced cAMP; read-out: EC50 of cAMP levels affected by agonistic effect on MOR
propertyLabel: EC50 (nM)

>>> result("Cc1ccc(CNCCC2(c3ccccn3)CCOC3(CCCC3)C2)c(OC(F)(F)F)c1 (centres unmarked)")
5.51
>>> result("Cc1ccc(CNCCC2(c3ccccn3)CCOC3(CCCC3)C2)c(C)c1 (centres unmarked)")
4.77
>>> result("FC(F)(F)Oc1ccc(Cl)cc1CNCCC1(c2ccccn2)CCOC2(CCCC2)C1 (centres unmarked)")
1.89
>>> result("CNc1ccsc1C(=O)NCCC1(c2ccccn2)CCOC2(CCCC2)C1 (centres unmarked)")
3.74
>>> result("Cc1ccc(CNCCC2(c3ccccn3)CCOC3(CCCC3)C2)cc1C (centres unmarked)")
3.08

---

- Tested on: SD rats
- assayNotes: Respiratory depression in rats, arterial blood gas PCO2
- Format: in vivo
- experimentalConditions: intravenous single dose 0.3 mg/kg (morphine 24 mg/kg), 60 min
propertyLabel: PCO2, 60 min after administration (mmHg)

>>> result("Cc1cc(F)cnc1C1(CCNCc2ccccc2OC(F)(F)F)CCOC2(CCCC2)C1 (stereo not drawn) [Example H10]")
36.27
>>> result("CNc1ccsc1C(=O)NCCC1(c2ccccn2)CCOC2(CCCC2)C1 (stereo not drawn) [Example H24]")
36.27
>>> result("CN1CC[C@]23c4c5ccc(O)c4O[C@H]2[C@@H](O)C=C[C@H]3[C@H]1C5 [morphine, reference compound]")
58.63
>>> result("Clc1ccsc1CNCCC1(c2ccccn2)CCOC2(CCCC2)C1 (stereo not drawn) [Example H05]")
34.85
>>> result("FC(F)Oc1ccccc1CNCCC1(c2ccccn2)CCOC2(CCCC2)C1 (stereo not drawn) [Example H16]")
31.27
>>> result("FC(F)(F)Oc1ccc(Cl)cc1CNCCC1(c2ccccn2)CCOC2(CCCC2)C1 (stereo not drawn) [Example H17]")
34.27
>>> result("Fc1ccc(C2(CCNCc3ccccc3OC(F)(F)F)CCOC3(CCCC3)C2)nc1 (stereo not drawn) [Example H21]")
37.27
>>> result("FC(F)Oc1ccsc1CNCCC1(c2ccccn2)CCOC2(CCCC2)C1 (stereo not drawn) [Example H18]")
36.27
>>> result("Cc1ccc(CNCCC2(c3ccccn3)CCOC3(CCCC3)C2)c(C)c1 (stereo not drawn) [Example H08]")
34.27

---

# key: entry, value: 50% PWT, 60 min after administration
- Test system: rat surgical incision injury model
- assayNotes: Rat surgical incision injury model, von Frey paw withdrawal threshold
- Format: in vivo, SD rats
- experimentalConditions: rats, intravenous 0.3 mg/kg, 60 min
- Description: 8-week-old male SD rats weighing 200 g-300 g were used as experimental animals to determine the effect of the compound of Example H02, the compound of Example H04, the compound of Example H10, the compound of Example H16, the compound of Example H17, the compound of Example H18, the compound of Example H21 and the compound of Example H24 on surgical pain in rats after intravenous administration. The analgesic effect of the compounds was discussed. […]
propertyLabel: 50% PWT, 60 min after administration (g)

>>> result("FC(F)Oc1ccccc1CNCCC1(c2ccccn2)CCOC2(CCCC2)C1 (stereo not shown) [Example H16]")
10.29
>>> result("Fc1ccc(C2(CCNCc3ccccc3OC(F)(F)F)CCOC3(CCCC3)C2)nc1 (stereo not shown) [Example H21]")
8.29
>>> result("FC(F)Oc1ccsc1CNCCC1(c2ccccn2)CCOC2(CCCC2)C1 (stereo not shown) [Example H18]")
6.91
>>> result("Cc1c(Cl)cccc1CNCCC1(c2ccccn2)CCOC2(CCCC2)C1 (stereo not shown) [Example H04]")
8.29
